Tested on: PC-3
assayMethodText: cells
appliedConditions: Homo sapiens, PC-3, 72 h, read-out: Re IC50
metricName: IC50 (nM)
Numeric answer only, unit nM assumed.

input: For the compound CCc1c2c(nc3ccc(O)cc13)-c1cc3c(c(=O)n1C2)COC(=O)[C@]3(O)CC [SN38] , what IC50 is on record?
output: 48.7

* * *

Tested on: 11 tumor cell lines
assayMethodText: 11 cancer cell line panel cytotoxicity, statements on the whole panel
appliedConditions: 72 h, read-out: IC50 on all 11 tumor cell lines
metricName: IC50

input: I'd like to know its IC50. The compound in question is CCc1c2c(nc3ccc(O)cc13)-c1cc3c(c(=O)n1C2)COC(=O)[C@]3(O)CC [SN38]
output: < 300 nM

Numbers sourced from patent US10624968B2.
